- Procedure Text: Inhibition of baker's yeast alpha-glucosidase using p-nitrophenyl-alpha-D-glucopyranoside as substrate incubated with enzyme for 10 mins prior to substrate challenge for 15 mins by microplate reader analysis
- Set-up: species or system Saccharomyces cerevisiae
pIC50: −log10 of the molar value.
# key: entry, value: pIC50

Smi: CC(=O)Oc1c(OC(C)=O)c(-c2ccc(O)c(O)c2)c(O)c(O)c1-c1ccc(O)cc1
pIC50: 5.47
--
Smi: CC[C@@H](C)[C@]12Oc3cc(C4=C(O)C(=O)C(c5ccc(O)cc5)=C(O)C4=O)ccc3O[N@@+]1([O-])C(O)=C([C@@H](C)CC)N(O)C2=O
pIC50: 6.24
--
Smi: CC[C@@H](C)[C@]12Oc3cc(C4=C(O)C(=O)C(c5ccc(O)cc5)=C(O)C4=O)ccc3O[N@+]1([O-])C(O)=C([C@@H](C)CC)N(O)C2=O
pIC50: 5.97
--
Smi: CC[C@@H](C)[C@]12Oc3cc(-c4c(O)c(O)c(-c5ccc(O)cc5)c(OC(C)=O)c4OC(C)=O)ccc3O[N@@+]1([O-])C(O)=C([C@@H](C)CC)N(O)C2=O
pIC50: 5.91
--
Smi: CC(=O)Oc1c(OC(C)=O)c(-c2ccc(O)cc2)c(OC(C)=O)c(OC(C)=O)c1-c1ccc(O)cc1
pIC50: 4.46
--
Smi: CC[C@@H](C)[C@]12Oc3cc(-c4c(O)c(O)c(-c5ccc(OC(C)=O)cc5)c(OC(C)=O)c4OC(C)=O)ccc3O[N@+]1([O-])C(O)=C([C@@H](C)CC)N(O)C2=O
pIC50: 5.38
--
Smi: CC(=O)Oc1c(OC(C)=O)c(-c2ccc(O)cc2)c(O)c(O)c1-c1ccc(O)cc1
pIC50: 4.72
